Each record here notes measured EC50.
assayed target: T1, ITGA2-His (human, UniProt P17301 30-1132, limits assumed)
T1 construct: also called ITGA2 protein; not shown: His tag
T1 sequence (looked up): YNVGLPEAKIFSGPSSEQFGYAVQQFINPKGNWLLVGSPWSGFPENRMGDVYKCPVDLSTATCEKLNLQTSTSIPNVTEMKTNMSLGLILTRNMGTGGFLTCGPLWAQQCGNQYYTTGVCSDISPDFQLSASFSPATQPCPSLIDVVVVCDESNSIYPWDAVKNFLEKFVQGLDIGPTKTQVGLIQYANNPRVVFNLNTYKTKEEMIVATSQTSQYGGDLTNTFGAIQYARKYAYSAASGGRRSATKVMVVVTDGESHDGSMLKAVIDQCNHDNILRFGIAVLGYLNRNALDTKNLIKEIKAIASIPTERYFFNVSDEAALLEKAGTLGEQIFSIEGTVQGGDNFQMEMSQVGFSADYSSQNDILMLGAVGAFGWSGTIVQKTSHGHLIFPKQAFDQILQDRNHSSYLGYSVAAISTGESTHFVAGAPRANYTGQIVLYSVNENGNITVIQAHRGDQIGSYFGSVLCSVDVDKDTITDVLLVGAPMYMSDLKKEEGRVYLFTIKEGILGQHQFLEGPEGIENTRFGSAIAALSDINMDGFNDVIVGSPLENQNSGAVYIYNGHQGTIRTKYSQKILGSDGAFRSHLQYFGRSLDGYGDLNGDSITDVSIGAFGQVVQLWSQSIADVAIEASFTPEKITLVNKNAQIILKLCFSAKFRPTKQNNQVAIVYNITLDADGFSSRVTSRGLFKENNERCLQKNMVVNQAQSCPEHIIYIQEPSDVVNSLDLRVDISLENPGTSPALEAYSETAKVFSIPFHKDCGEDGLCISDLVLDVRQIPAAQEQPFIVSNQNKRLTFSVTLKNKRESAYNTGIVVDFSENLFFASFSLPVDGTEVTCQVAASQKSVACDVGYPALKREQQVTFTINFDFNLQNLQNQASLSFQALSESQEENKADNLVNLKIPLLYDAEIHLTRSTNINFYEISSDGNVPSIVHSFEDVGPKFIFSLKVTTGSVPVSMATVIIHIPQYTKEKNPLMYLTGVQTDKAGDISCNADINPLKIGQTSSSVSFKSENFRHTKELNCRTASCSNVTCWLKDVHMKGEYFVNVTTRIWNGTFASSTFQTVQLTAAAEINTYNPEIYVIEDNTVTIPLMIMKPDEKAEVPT
procedure details: ELISA, plate coated with 2 ug/mL ITGA2-His, anti-human IgG-Fc-HRP detection
State the answer as a number, implicitly in pM.

Humanized antibody FS002-A72 (antibody, human IgG1, kappa, V domains shown, IgG1 heavy chain, kappa light chain) VH: QVQLVDSGGGLVQPGGSLRLSCVASGFAFSNYEMNWVRQAPGKGLEWVSYISSSSSYTNYADSVKGRFTISRDNAKNSLYLQMNSLRAEDTAVYYCARAQVRDAFDIWGQGTTVTVSS VL: IVMTQSPVTLSVSPGDSATLSCRASQSVDKNLAWYQQKTGQAPRLLIYGAATRATGIPARFSGSGSGTEFTLTISSLRSEDFAVYYCQQYRNWPWTFGLGTKVEIKR: 259
Humanized antibody FS002-A66 (antibody, human IgG1, kappa, V domains shown, IgG1 heavy chain, kappa light chain) VH: EVQLVESGGGVVQPGRSLRLSCAASGFTFSSYAMHWVRQAPGKGLEWVAVISYDGSNKYYVDSVKGRFTISRDNSKNTLYLQMNSLRAEDTAVYYCARDRITYLDYYYYGMDVWGQGTTVTVSS VL: EIVLTQSPAILSLSPGERATLSCRASQSVSEYLAWYQQKPGQAPRLLIYDISNRATGIPARFSGSGSETDFTLTISSLEPEDFAVYYCQQRRTWPLTFGPGTKVDIKR: 31
Humanized antibody FS002-A36 (antibody, human IgG1, kappa, V domains shown, IgG1 heavy chain, kappa light chain) VH: QVQLQESGPGLVKPSQTLSLTCTVSGGSISSGGYYWSWIRQHPGKGLEWIGYIYYSGSTYYNPSLKSRVTISVDTSKNQFSLKLSSVTAADTAVYYCARVRLLGGGFDIWGQGTTVTVSS VL: EIVLTQSPATLSLSPGERATLSCRASQSVSTYLAWYQQKPGQAPRLLIYDTSIRATGIPARFSGSGSGTDFTLTISSLEPEDFAVYYCQQRSNWPLTFGGGTKVEIKR: 22
Humanized antibody FS002-C241 (antibody, human IgG1, lambda, V domains shown, IgG1 heavy chain, lambda light chain) VH: RLQLQESGPGLVKPSETLSLTCTVSGGSISSSSYYWGWIRQPPGKGLEWIGSIYYSGSTYYNPSLKSRVTISVDTSKNQFSLKLSSVTAADTAVYYCARRYSYGRDAFDIWGQGTMVTVSS VL: QSALTQPASVSGSPGQSITISCSGTSSDIGRYNYVSWYQQHPGKAPKLLIFDVSNRPSGVSNRFSGSKSGNTASLTISGLQAEDEADYYCSSYTSTVPYVFGTGTRVAVQG: 116
Humanized antibody FS002-C375 (antibody, human IgG1, kappa, V domains shown, IgG1 heavy chain, kappa light chain) VH: QVQLQESGPGLVKPSQTLSLTCTVSGGSISSGGYYWSWIRQHPGKGLEWIGYIYYSGSTYYNPSLKSRVTISVDTSKNQFSLKLSSVTAADTAVYYCARVGVALHYGMDVWGQGTTVTVSS VL: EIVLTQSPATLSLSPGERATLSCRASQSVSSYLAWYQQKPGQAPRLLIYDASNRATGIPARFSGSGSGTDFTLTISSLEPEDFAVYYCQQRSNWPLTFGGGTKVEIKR: 73

Consider the additional binder presented here.
Which EC50 is listed for Humanized antibody FS002-C153 (antibody, human IgG1, lambda, V domains shown, IgG1 heavy chain, lambda light chain) VH: QVQLQQWGAELVKPGASVKLSCTASGFNIKDTYMHWVKQRPEQGLEWIGRIDPANGNTKYDPKFQGKATITADTSSNTAYLQLSSLTSEDTAVYYCARSYYRYDGYFDVWGAGTMVTVSS VL: QSALTQPASVSGSPGQSITISCTGTSSDVGGYNYVSWYQQHPGKAPKLMIYDVSNRPSGVSNRFSGSKSGNTASLTISGLQAEDEADYYCSSFTTITTRVFGGGTKLTVLG ?
87

The measurements presented in this section are drawn from patent EP4545563A1.
